All figures here come from patent US9802937B2.

- tested system: UniProt Q5S007
- Sequence (Q5S007 970-2527 limits assumed): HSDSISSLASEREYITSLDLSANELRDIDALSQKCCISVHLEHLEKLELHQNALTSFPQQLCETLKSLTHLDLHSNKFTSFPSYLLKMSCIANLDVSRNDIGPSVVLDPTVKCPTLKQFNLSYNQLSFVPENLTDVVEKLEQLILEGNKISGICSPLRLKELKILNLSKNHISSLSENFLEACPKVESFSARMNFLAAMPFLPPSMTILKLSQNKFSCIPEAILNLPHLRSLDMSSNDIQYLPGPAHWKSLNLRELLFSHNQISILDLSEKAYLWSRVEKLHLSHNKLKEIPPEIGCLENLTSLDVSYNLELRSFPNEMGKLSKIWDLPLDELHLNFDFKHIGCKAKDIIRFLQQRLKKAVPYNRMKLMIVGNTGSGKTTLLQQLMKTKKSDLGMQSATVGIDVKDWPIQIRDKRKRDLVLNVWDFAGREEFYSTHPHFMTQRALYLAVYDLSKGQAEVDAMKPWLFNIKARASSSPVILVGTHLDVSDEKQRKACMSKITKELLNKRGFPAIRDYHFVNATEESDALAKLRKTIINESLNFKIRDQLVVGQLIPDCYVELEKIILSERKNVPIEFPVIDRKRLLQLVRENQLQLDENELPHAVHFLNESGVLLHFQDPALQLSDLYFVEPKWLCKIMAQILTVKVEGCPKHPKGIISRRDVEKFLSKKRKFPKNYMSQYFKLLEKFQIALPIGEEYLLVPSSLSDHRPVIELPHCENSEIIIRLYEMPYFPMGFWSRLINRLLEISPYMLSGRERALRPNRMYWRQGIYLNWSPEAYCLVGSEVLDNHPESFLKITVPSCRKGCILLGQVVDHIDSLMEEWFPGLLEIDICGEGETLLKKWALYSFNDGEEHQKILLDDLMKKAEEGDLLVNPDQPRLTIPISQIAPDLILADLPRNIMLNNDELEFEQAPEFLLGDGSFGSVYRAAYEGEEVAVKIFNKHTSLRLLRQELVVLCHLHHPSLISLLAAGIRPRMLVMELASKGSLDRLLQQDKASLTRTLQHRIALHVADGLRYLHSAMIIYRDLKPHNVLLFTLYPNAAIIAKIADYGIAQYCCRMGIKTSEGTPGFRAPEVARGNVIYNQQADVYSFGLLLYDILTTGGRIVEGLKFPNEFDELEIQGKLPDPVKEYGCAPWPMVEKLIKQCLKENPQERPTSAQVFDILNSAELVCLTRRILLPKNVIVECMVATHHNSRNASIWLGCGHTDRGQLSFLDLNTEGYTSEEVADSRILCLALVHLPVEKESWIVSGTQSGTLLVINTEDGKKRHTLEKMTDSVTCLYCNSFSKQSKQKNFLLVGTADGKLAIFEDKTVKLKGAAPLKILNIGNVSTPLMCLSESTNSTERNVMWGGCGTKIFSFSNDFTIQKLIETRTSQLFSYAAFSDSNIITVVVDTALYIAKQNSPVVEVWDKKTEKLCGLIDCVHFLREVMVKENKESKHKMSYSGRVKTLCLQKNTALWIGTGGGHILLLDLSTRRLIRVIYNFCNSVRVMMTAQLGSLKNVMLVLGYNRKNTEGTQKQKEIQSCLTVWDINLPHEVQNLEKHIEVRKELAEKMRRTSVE
- protocol summary: LRRK2-LRRK2 G2019S-Assay (LanthaScreen Eu Kinase Binding Assay)
- condition info: 5 nM LRRK2 or their mutants, 10 nM tracer 236, RT 1 h; read-out: LRRK2 Activities: IC50
pIC50: −log10 of the molar value.
Listing of recorded pIC50 by entry.

Examples with their reported pIC50 follow.
{"columns": ["molecule", "pIC50"],
 "data": [
  ["CN1CCN(C2CCN(c3ccc(Nc4nc(-c5ccccc5F)nc5cn[nH]c45)cc3)CC2)CC1 [Example #278]", "6.00 to 7.00"],
  ["CCN1CCN(c2ccc(Nc3nc(-c4ccccc4)nc4cn[nH]c34)cc2)CC1 [Example #119]", "6.00 to 7.00"],
  ["O=C1CCc2ccc(Nc3nc(-c4nccs4)nc4cn[nH]c34)cc2N1 [Example #186]", "6.00 to 7.00"]
]}

The value of pIC50 measured for the molecule COc1cccc(-c2nc(Nc3cc(C4CC4)[nH]n3)c3[nH]ncc3n2)c1 [Example #88] turned out to be 6.00 to 7.00

Form: molecule = c1ccn2cc(-c3nc(Nc4ccc5cn[nH]c5c4)c4[nH]ncc4n3)nc2c1 [Example #127] ; pIC50 = 6.00 to 7.00

Per the record, CN1Cc2ccc(Nc3nc(-c4cccs4)nc4cn[nH]c34)cc2C1 [Example #303] has pIC50 of 6.00 to 7.00
